Origin of the recorded values: the Biogen ADME set (Fang et al. 2023)

METRIC: MDR1-MDCK efflux ratio
# print the numeric value only

input: Param item = `Cc1cnc(NC(=O)c2cc(S(=O)(=O)N(C)C)ccc2N2CCCC2)s1` ; retrieve measured MDR1-MDCK efflux ratio.
output: 19.9

input: # MDR1-MDCK efflux ratio lookup, item O=C(CN1CCOC(c2ccc(F)cc2)C1)Nc1ccccc1OC(F)F (stereo unspecified)
output: 0.589

input: Bench note: what MDR1-MDCK efflux ratio did `CC1(C)Cc2cc(CN3CCC4(CC3)NC(=O)N(Cc3ccccc3)C4=O)ccc2O1` show?
output: 7.73

input: Can you share its MDR1-MDCK efflux ratio? I mean this compound: `O=C(CN1CCCN(c2nccs2)CC1)Nc1cccc(Cl)c1`
output: 0.851

input: GET /values?readout=MDR1-MDCK efflux ratio&item= `CCc1c(O)cc(O)c(C(=O)c2ccc(OCCN3CCOCC3)c(OC)c2)c1CC(=O)N(CCOC)CCOC`
output: 7.53

input: Endpoint output: MDR1-MDCK efflux ratio of `CC(=O)c1c(C)c2cnc(Nc3ccc(N4CCNCC4)cn3)nc2n(C2CCCC2)c1=O` . Value?
output: 63.1

input: Name the reported MDR1-MDCK efflux ratio value associated with the compound `CCc1nc(N2CC(CO)C2)c2ccsc2n1`
output: 1.33

input: If you can, please state the reported MDR1-MDCK efflux ratio value of `O=c1c2c(C(F)(F)F)cccc2ncn1CCc1ncc[nH]1` .
output: 15.6

input: Field request: MDR1-MDCK efflux ratio | item: `O=C(NCCCNC(=O)c1cc2ccccc2[nH]1)c1ccc2c(c1)OCCO2`
output: 6.74

input: Param item = `CC(C)Cc1n[nH]c(-c2ccc(N3CCN(C)CC3)cc2)n1` ; retrieve measured MDR1-MDCK efflux ratio.
output: 3.36

input: What does the record list as MDR1-MDCK efflux ratio for `COc1cccc(OC)c1-c1ccc(OCCN2CCCC2)cc1` ?
output: 1.4

====

Classify by measured MDR1-MDCK efflux ratio: satisfied if it is equal to or exceeds 0.7, not satisfied if it is smaller.

input: For this compound, is measured MDR1-MDCK efflux ratio 0.7 or higher? `O=C(NCc1ccc(F)cc1)C1(Cc2ccc(-c3cccnc3)cc2)CCOCC1`
output: satisfied

input: Could you please find out whether `O=C(NCC(=O)N1CCN(C2CC2)CC1)c1ccccc1` has MDR1-MDCK efflux ratio that meets 0.7 or exceeds it?
output: not satisfied

input: Test whether the compound `CC(C)c1nc(S(=O)(=O)N2CC3(CC3)c3ccccc32)c[nH]1` records MDR1-MDCK efflux ratio of 0.7 or higher.
output: satisfied

input: Entry `Cc1nn(C)c(C)c1C(=O)NCc1ccccc1` : is its MDR1-MDCK efflux ratio no less than 0.7?
output: satisfied

input: Is the recorded value of MDR1-MDCK efflux ratio equal to or greater than 0.7 for this compound? `CC(=O)Nc1ccc2nc(N3CCOCC3)sc2c1`
output: satisfied

input: State whether the measured MDR1-MDCK efflux ratio reaches 0.7, counting equality as reaching it, for `Fc1cccc(Cn2nnc(-c3ccccc3)n2)c1F`
output: not satisfied

input: Hi, just wondering whether `Cc1cc(C(=O)NC(C)(C)C#N)nn1-c1ccc(F)cc1` shows MDR1-MDCK efflux ratio of 0.7 or higher.
output: satisfied

input: Say whether `CCC(=O)Nc1cccc(C(=O)N2CCN(C)Cc3ccccc32)c1` shows MDR1-MDCK efflux ratio of 0.7 or more.
output: satisfied

input: Textbook exercise: given the entry `Cc1nnc(NCCc2ccc3c(c2)OCO3)c(C#N)c1C` , state whether its MDR1-MDCK efflux ratio is greater than or equal to 0.7.
output: not satisfied

input: Is it the case that `CCC(=O)NCCNC(=O)c1cc(-c2ccccc2)nc2ccccc12` has MDR1-MDCK efflux ratio reaching or exceeding 0.7?
output: satisfied

input: Does the reported MDR1-MDCK efflux ratio for `Cc1cc(CN2CCN(c3ncccn3)CC2)on1` fall at or above the 0.7 mark?
output: not satisfied

input: Hello, I need to know if `CCN(CC)S(=O)(=O)c1ccc2c(c1)CCN2CC(=O)NCc1ccccc1F` has measured MDR1-MDCK efflux ratio not below 0.7. Thanks!
output: satisfied

input: Tell me whether MDR1-MDCK efflux ratio is at least 0.7 here: `O[C@@H]1CO[C@H]2C[C@@H]1Nc1c(Cc3ccccc3)cccc12`
output: not satisfied

input: Quick check: does `CN(c1ncnc2c1cnn2CCO)C1CCCCC1` have MDR1-MDCK efflux ratio greater than or equal to 0.7?
output: not satisfied

input: Given `O=C1CCCN1c1ccc(S(=O)(=O)Nc2cccc(-c3nnc4n3CCC4)c2)cc1` , state whether its MDR1-MDCK efflux ratio is at least 0.7.
output: satisfied

input: Could you please find out whether `CCOC(=O)C1(Cc2cc(-c3ccc(F)cc3)no2)CCN(Cc2ccccc2O)CC1` has MDR1-MDCK efflux ratio that meets 0.7 or exceeds it?
output: satisfied

input: Hello, I need to know if O=C(C1CCCN(Cc2cc3c(cc2O)OCO3)C1)N1CCOCC1 (stereo not drawn) has measured MDR1-MDCK efflux ratio not below 0.7. Thanks!
output: satisfied

input: For this compound, is measured MDR1-MDCK efflux ratio 0.7 or higher? `CN1C(=O)[C@H](Cc2ccccc2)N[C@@H]1C(C)(C)C`
output: satisfied

input: Does the reported MDR1-MDCK efflux ratio for `Cn1ccc(CN2CCC(c3cnccn3)CC2)n1` fall at or above the 0.7 mark?
output: satisfied

input: I'd appreciate it if you could say whether `CC(=O)N1CCN([C@H]2CCN(C(=O)c3cc4cc(Cl)ccc4o3)CC[C@@H]2O)CC1` has MDR1-MDCK efflux ratio at least equal to 0.7.
output: satisfied

input: Check the entry `COCCOCc1ccc(-c2cc3onc(-c4ccccc4)c3c(=O)n2C)cc1` : does MDR1-MDCK efflux ratio equal or exceed 0.7?
output: not satisfied

input: Kindly determine if MDR1-MDCK efflux ratio recorded for `CCCc1cc(C)nc(O)c1CNC(=O)c1cc(-c2ccc(N3CCN(C(C)C)CC3)nc2)cc2c1cnn2C(C)C` is above or exactly 0.7.
output: satisfied

input: # bool: MDR1-MDCK efflux ratio of `Cc1cc(C)cc(Oc2cc(C#N)ccn2)c1` >= 0.7
output: not satisfied
